Method notes: chemical genetic growth profiling, strain panel (AID 1159580);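 note: tested at 20 µM; growth read once vehicle control cultures reached saturation at 30 °C; 1 = growth at the plate median or of vehicle wells; lower values mean less growth of the strain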
Cond: S. cerevisiae deletion strains, growth OD, locus YFL029C, strain CAK1, active compounds read low
Out of some 5,500 compounds screened, about 2,000 (36%) were called active. Not shown: some 18% with an inconclusive outcome. The list shows a part of the results.
Please go through the items and note down their normalized growth.
Form field (numeric): enter value without unit.

Problem: normalized growth lookup needed for O=C(Nc1cc(Cl)cc(Cl)c1)Nc1cc(-c2cccs2)[nH]n1 , thanks.
Solution: 0.956

Problem: normalized growth lookup needed for O=C(Nc1cc(Cl)cc(Cl)c1)Nc1cc(-c2ccco2)[nH]n1 , thanks.
Solution: 0.616

Problem: normalized growth lookup needed for NC(N)=Nc1nc(-c2cc(Cl)sc2Cl)cs1 , thanks.
Solution: 0.988

Problem: normalized growth lookup needed for C=CC(=O)N1CCc2cc([N+](=O)[O-])ccc21 , thanks.
Solution: 0.72

Problem: normalized growth lookup needed for N#C/C(=C\c1ccccc1Sc1ccc(Cl)cc1)S(=O)(=O)c1ccccn1 , thanks.
Solution: 0.968

Problem: normalized growth lookup needed for Cc1c(Cl)cccc1NC(=S)N1CCCN(c2ccc(C(F)(F)F)cc2[N+](=O)[O-])CC1 , thanks.
Solution: 0.994

Problem: normalized growth lookup needed for Cn1cncc1S(=O)(=O)/C(C#N)=C/c1ccccc1Sc1ccc(Cl)cc1 , thanks.
Solution: 0.984

Data provenance is PubChem BioAssay AID1159580.
